Here, each record is paired with measured protein stability index data.
B1: CHIT1 (parent)
chain: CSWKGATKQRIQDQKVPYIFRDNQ

Variants of: B1
Test: protein stability index of a GFP-peptide fusion (GPS, HEK-293T) (PSI 1-6); higher = more stable;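 also: lentivirally expressed fusions sorted by FACS into six bins by GFP to DsRed ratio, PSI derived from sequencing read proportions per bin multiplied by bin number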
Conditions: c terminus: a fixed tail appended
# answer = number (no unit)

CSWKGATKQRIQDLKVPYIFRDNQ 2.04
CSWKGATKQRIQDQKVPMIFRDNQ 2.41
CSWKGATKQRYQDQKVPYIFRDNQ 2.51
CSWKGATKQRIQDQKVPYIFRDNS 2.82
CSWKGATKCRIQDQKVPYIFRDNQ 1.07

Query: Given the variant CSWKGATKQRIQDQKVFYIFRDNQ , what is its reported protein stability index?
Result: 1.54

Query: Item: CSWKGATKQRIQDQRVPYIFRDNQ
Result: 2.31

Query: Item: CSWKGATKQRIQDQKVPYIFKDNQ
Result: 2.83

All figures here come from the supplement of paper PMC10567573.
